system: NCI-H2087; test: relative viability (nuclei count vs DMSO), 5 days (fraction); higher = more cells survive; conditions: first compound 0.4 µM
Class boundaries, taken from values of relative viability, are as follows: lower range: < 0.5; middle range: ≥ 0.5 and < 1; upper range: ≥ 1

Consider COc1cc(N2CCC(C(N)=O)CC2)ccc1Nc1nc(N)c(Cl)c(Nc2ccccc2S(=O)(=O)C(C)C)n1 [HG-5-88-01] + Nc1ncn([C@H]2C[C@H](O)[C@@H](CO)O2)c(=O)n1 [Decitabine] (partner 2 µM) . To which relative viability class does it belong?
lower range

Same question for COc1cc(N2CCC(C(N)=O)CC2)ccc1Nc1nc(N)c(Cl)c(Nc2ccccc2S(=O)(=O)C(C)C)n1 [HG-5-88-01] + C[C@@H](Oc1cc(-c2cnn(C3CCNCC3)c2)cnc1N)c1c(Cl)ccc(F)c1Cl [Crizotinib] (partner 1 µM) please.
middle range

Another molecule: COc1cc(N2CCC(C(N)=O)CC2)ccc1Nc1nc(N)c(Cl)c(Nc2ccccc2S(=O)(=O)C(C)C)n1 [HG-5-88-01] + N=C(N)NC(=N)NCCc1ccccc1 [Phenformin] (partner 250 µM)
lower range

Next molecule: Clc1ccc(Nc2nnc(Cc3ccncc3)c3ccccc23)cc1 [Vatalanib] + O=C(c1cc(Cc2n[nH]c(=O)c3ccccc23)ccc1F)N1CCN(C(=O)C2CC2)CC1 [Olaparib] (partner 8 µM)
middle range

Lookup C[C@@H]1CN(CC(=O)Nc2ccc3c(c2)Cc2cccc(-c4cc(=O)cc(N5CCOCC5)o4)c2S3)C[C@H](C)O1 + COc1cccc2cc(-c3nc([C@H]4CC[C@H](C(=O)O)CC4)n4ncnc(N)c34)[nH]c12 [OSI-027] (partner 0.5 µM)
lower range

Request: C[C@@H]1CN(CC(=O)Nc2ccc3c(c2)Cc2cccc(-c4cc(=O)cc(N5CCOCC5)o4)c2S3)C[C@H](C)O1 + NC(=O)Nc1cc(-c2cccc(F)c2)sc1C(=O)N[C@H]1CCCNC1 [AZD7762] (partner 0.2 µM)
upper range

And what about the molecule COc1cc(N2CCC(C(N)=O)CC2)ccc1Nc1nc(N)c(Cl)c(Nc2ccccc2S(=O)(=O)C(C)C)n1 [HG-5-88-01] + COc1cc2c(Oc3ccc(NC(=O)C4(C(=O)Nc5ccc(F)cc5)CC4)cc3F)ccnc2cc1OCCCN1CCOCC1 [Foretinib] (partner 0.25 µM) ?
upper range

----------
system: NCI-H1563; experiment: relative viability (nuclei count vs DMSO), 5 days (fraction); higher = more cells survive; conditions: first compound 1.265 µM
So I've got a bunch of compounds here, and I need their relative viability values.
Returns: the value as a bare number; no unit string appended.

Item COc1cc(N2CCC(C(N)=O)CC2)ccc1Nc1nc(N)c(Cl)c(Nc2ccccc2S(=O)(=O)C(C)C)n1 [HG-5-88-01] + C[C@]1(O)C[C@@H](c2nc(-c3ccc4ccc(-c5ccccc5)nc4c3)c3c(N)nccn32)C1 [Linsitinib] (partner 1 µM) has what recorded relative viability?
1.21

Repeat with COc1cc(N2CCC(C(N)=O)CC2)ccc1Nc1nc(N)c(Cl)c(Nc2ccccc2S(=O)(=O)C(C)C)n1 [HG-5-88-01] + COc1cc2c(Oc3ccc(NC(=O)C4(C(=O)Nc5ccc(F)cc5)CC4)cc3F)ccnc2cc1OCCCN1CCOCC1 [Foretinib] (partner 0.25 µM)
0.866

What do we get for COc1cc(N2CCC(C(N)=O)CC2)ccc1Nc1nc(N)c(Cl)c(Nc2ccccc2S(=O)(=O)C(C)C)n1 [HG-5-88-01] + Cc1nc(Nc2ncc(C(=O)Nc3c(C)cccc3Cl)s2)cc(N2CCN(CCO)CC2)n1 [Dasatinib] (partner 0.075 µM) ?
0.367

----------
test system: EPLC-272H; test: relative viability (nuclei count vs DMSO), 5 days (fraction); higher = more cells survive; settings: first compound 4 µM
Response field label takes Condition met when relative viability is strictly below 0.3 and Condition not met in all other cases.

Criterion: relative viability strictly below 0.3. Is it met by COc1cc(N2CCC(C(N)=O)CC2)ccc1Nc1nc(N)c(Cl)c(Nc2ccccc2S(=O)(=O)C(C)C)n1 [HG-5-88-01] + CC(=O)Nc1cccc(-n2c(=O)n(C3CC3)c(=O)c3c(Nc4ccc(I)cc4F)n(C)c(=O)c(C)c32)c1 [Trametinib] (partner 0.02 µM) ?
Condition met

Input COc1cc(N2CCC(C(N)=O)CC2)ccc1Nc1nc(N)c(Cl)c(Nc2ccccc2S(=O)(=O)C(C)C)n1 [HG-5-88-01] + C[C@@H](Oc1cc(-c2cnn(C3CCNCC3)c2)cnc1N)c1c(Cl)ccc(F)c1Cl [Crizotinib] (partner 1 µM)
Condition met

// next record C[C@@H]1CN(CC(=O)Nc2ccc3c(c2)Cc2cccc(-c4cc(=O)cc(N5CCOCC5)o4)c2S3)C[C@H](C)O1 + COc1cc2c(Oc3ccc(NC(=O)C4(C(=O)Nc5ccc(F)cc5)CC4)cc3F)ccnc2cc1OCCCN1CCOCC1 [Foretinib] (partner 0.25 µM)
Condition not met

And Clc1ccc(Nc2nnc(Cc3ccncc3)c3ccccc23)cc1 [Vatalanib] + Cc1cc(Nc2cc(N3CCN(C)CC3)nc(Sc3ccc(NC(=O)C4CC4)cc3)n2)n[nH]1 [Tozasertib] (partner 0.1 µM) ?
Condition met

Another molecule to look at: Clc1ccc(Nc2nnc(Cc3ccncc3)c3ccccc23)cc1 [Vatalanib] + O=C(c1cc(Cc2n[nH]c(=O)c3ccccc23)ccc1F)N1CCN(C(=O)C2CC2)CC1 [Olaparib] (partner 8 µM)
Condition not met

Field entry: Clc1ccc(Nc2nnc(Cc3ccncc3)c3ccccc23)cc1 [Vatalanib] + CC(=O)Nc1cccc(-n2c(=O)n(C3CC3)c(=O)c3c(Nc4ccc(I)cc4F)n(C)c(=O)c(C)c32)c1 [Trametinib] (partner 0.02 µM)
Condition met

// repeat for COc1cc(N2CCC(C(N)=O)CC2)ccc1Nc1nc(N)c(Cl)c(Nc2ccccc2S(=O)(=O)C(C)C)n1 [HG-5-88-01] + C[C@]1(O)C[C@@H](c2nc(-c3ccc4ccc(-c5ccccc5)nc4c3)c3c(N)nccn32)C1 [Linsitinib] (partner 1 µM) and report
Condition met

----------
system: EKVX; experiment: relative viability (nuclei count vs DMSO), 5 days (fraction); higher = more cells survive; settings: first compound 4 µM
Parameter measured: relative viability
Give the figure by itself; no unit, no explanation.

What measured relative viability is associated with COc1cc(N2CCC(C(N)=O)CC2)ccc1Nc1nc(N)c(Cl)c(Nc2ccccc2S(=O)(=O)C(C)C)n1 [HG-5-88-01] + N=C(N)NC(=N)NCCc1ccccc1 [Phenformin] (partner 250 µM) on EKVX?
0.226

Now consider Clc1ccc(Nc2nnc(Cc3ccncc3)c3ccccc23)cc1 [Vatalanib] + Cc1nc(Nc2ncc(C(=O)Nc3c(C)cccc3Cl)s2)cc(N2CCN(CCO)CC2)n1 [Dasatinib] (partner 0.075 µM) and answer again.
0.4

Another compound to look at: Clc1ccc(Nc2nnc(Cc3ccncc3)c3ccccc23)cc1 [Vatalanib] + CS(=O)(=O)CCNCc1ccc(-c2ccc3ncnc(Nc4ccc(OCc5cccc(F)c5)c(Cl)c4)c3c2)o1 [Lapatinib] (partner 2 µM)
0.216

Cool, now C[C@@H]1CN(CC(=O)Nc2ccc3c(c2)Cc2cccc(-c4cc(=O)cc(N5CCOCC5)o4)c2S3)C[C@H](C)O1 + Nc1ncn([C@H]2C[C@H](O)[C@@H](CO)O2)c(=O)n1 [Decitabine] (partner 2 µM)
0.317

Repeat for the following compound: COc1cc(N2CCC(C(N)=O)CC2)ccc1Nc1nc(N)c(Cl)c(Nc2ccccc2S(=O)(=O)C(C)C)n1 [HG-5-88-01] + CC(C)C[C@H](NC(=O)[C@H](Cc1ccccc1)NC(=O)c1cnccn1)B(O)O [Bortezomib] (partner 0.002 µM)
0.854

Record: C[C@@H]1CN(CC(=O)Nc2ccc3c(c2)Cc2cccc(-c4cc(=O)cc(N5CCOCC5)o4)c2S3)C[C@H](C)O1 + Nc1nc2[nH]cc(CCc3ccc(C(=O)N[C@@H](CCC(=O)O)C(=O)O)cc3)c2c(=O)[nH]1 [Pemetrexed] (partner 0.2 µM)
0.369

----------
test system: HCC-15; test: relative viability (nuclei count vs DMSO), 5 days (fraction); higher = more cells survive; conditions: first compound 4 µM
Parameter measured: relative viability
Enter the number alone.

Item under review: Clc1ccc(Nc2nnc(Cc3ccncc3)c3ccccc23)cc1 [Vatalanib] + Nc1ncn([C@H]2C[C@H](O)[C@@H](CO)O2)c(=O)n1 [Decitabine] (partner 2 µM) . Reported relative viability?
0.665

Also C[C@@H]1CN(CC(=O)Nc2ccc3c(c2)Cc2cccc(-c4cc(=O)cc(N5CCOCC5)o4)c2S3)C[C@H](C)O1 + CCNC(=O)c1noc(-c2cc(C(C)C)c(O)cc2O)c1-c1ccc(CN2CCOCC2)cc1 [Luminespib] (partner 0.01 µM) ?
0.27

Also check C[C@@H]1CN(CC(=O)Nc2ccc3c(c2)Cc2cccc(-c4cc(=O)cc(N5CCOCC5)o4)c2S3)C[C@H](C)O1 + CC1(C)CCC(c2ccc(Cl)cc2)=C(CN2CCN(c3ccc(C(=O)NS(=O)(=O)c4ccc(N[C@H](CCN5CCOCC5)CSc5ccccc5)c(S(=O)(=O)C(F)(F)F)c4)cc3)CC2)C1 [Navitoclax] (partner 0.5 µM)
0.556

// same read-out, input: C[C@@H]1CN(CC(=O)Nc2ccc3c(c2)Cc2cccc(-c4cc(=O)cc(N5CCOCC5)o4)c2S3)C[C@H](C)O1 + CC(C)C[C@H](NC(=O)[C@H](Cc1ccccc1)NC(=O)c1cnccn1)B(O)O [Bortezomib] (partner 0.002 µM)
0.836

// query: C[C@@H]1CN(CC(=O)Nc2ccc3c(c2)Cc2cccc(-c4cc(=O)cc(N5CCOCC5)o4)c2S3)C[C@H](C)O1 + Cc1cc(Nc2cc(N3CCN(C)CC3)nc(Sc3ccc(NC(=O)C4CC4)cc3)n2)n[nH]1 [Tozasertib] (partner 0.1 µM)
0.151

Now consider Clc1ccc(Nc2nnc(Cc3ccncc3)c3ccccc23)cc1 [Vatalanib] + CC(=O)Nc1cccc(-n2c(=O)n(C3CC3)c(=O)c3c(Nc4ccc(I)cc4F)n(C)c(=O)c(C)c32)c1 [Trametinib] (partner 0.02 µM) and answer again.
0.365

// query: COc1cc(N2CCC(C(N)=O)CC2)ccc1Nc1nc(N)c(Cl)c(Nc2ccccc2S(=O)(=O)C(C)C)n1 [HG-5-88-01] + NC(=O)Nc1cc(-c2cccc(F)c2)sc1C(=O)N[C@H]1CCCNC1 [AZD7762] (partner 0.2 µM)
1.04

Can you handle C[C@@H]1CN(CC(=O)Nc2ccc3c(c2)Cc2cccc(-c4cc(=O)cc(N5CCOCC5)o4)c2S3)C[C@H](C)O1 + CC(=O)c1c(C)c2cnc(Nc3ccc(N4CCNCC4)cn3)nc2n(C2CCCC2)c1=O [Palbociclib] (partner 0.5 µM) next?
0.678

Lookup Clc1ccc(Nc2nnc(Cc3ccncc3)c3ccccc23)cc1 [Vatalanib] + CC1(C)CCC(c2ccc(Cl)cc2)=C(CN2CCN(c3ccc(C(=O)NS(=O)(=O)c4ccc(N[C@H](CCN5CCOCC5)CSc5ccccc5)c(S(=O)(=O)C(F)(F)F)c4)cc3)CC2)C1 [Navitoclax] (partner 0.5 µM)
0.654
